Test system: 135F2 (fetal-II hepatoblastoma organoid with high liver markers)
protocol-text: area under the viability dose-response curve (AUC) (AUC (arbitrary units, max 500 = no viability loss)); higher = less sensitive (higher viability)
recorded-conditions: exposure time: 120 h; concentration range: 0.1 nM - 10 µM, 6 doses
// classify: if (area under the viability dose-response curve < 400) met else not met

Task item: Below 400 on area under the viability dose-response curve? Entry C[C@H](NC(=O)CCC(F)(F)F)C(=O)N[C@@H]1C(=O)N(CCO)c2ncccc2-c2ccccc21 [Crenigacestat]
Reply: not met

----------
Item-by-item account of area under the viability dose-response curve
Tested on: 3E (embryonal-type hepatoblastoma organoid)
protocol-text: area under the viability dose-response curve (AUC) (AUC (arbitrary units, max 500 = no viability loss)); higher = less sensitive (higher viability)
recorded-conditions: exposure time: 120 h; concentration range: 0.1 nM - 10 µM, 6 doses
I only need the number, thanks.

Reference set, count: 2
1) Nc1ccn([C@@H]2O[C@H](CO)[C@@H](O)[C@@H]2O)c(=O)n1 = 370
2) COCCNCc1ccc(-c2cc3nccc(Oc4ccc(NC(=O)C5(C(=O)Nc6ccc(F)cc6)CC5)cc4F)c3s2)nc1 = 417

Task item: Return reported area under the viability dose-response curve; argument: CC[C@]1(O)C[C@H]2CN(CCc3c([nH]c4ccccc34)[C@@](C(=O)OC)(c3cc4c(cc3OC)N(C=O)[C@H]3[C@@](O)(C(=O)OC)[C@H](OC(C)=O)[C@]5(CC)C=CCN6CC[C@]43[C@@H]65)C2)C1
Reply: 125

Task item: Return reported area under the viability dose-response curve; argument: CC(C)n1c(=O)n(C)c2cnc3cc(F)c(-c4ccc(OCCCN5CCCCC5)nc4)cc3c21
Reply: 491

----------
Item-by-item account of area under the viability dose-response curve
System: 13F2 (fetal-II hepatoblastoma organoid with high liver markers)
protocol-text: area under the viability dose-response curve (AUC) (AUC (arbitrary units, max 500 = no viability loss)); higher = less sensitive (higher viability)
recorded-conditions: exposure time: 120 h; concentration range: 0.1 nM - 10 µM, 6 doses
I only need the number, thanks.

1) Cn1ncnc1[C@H]1c2n[nH]c(=O)c3cc(F)cc(c23)N[C@@H]1c1ccc(F)cc1 = 328

Task item: Return reported area under the viability dose-response curve; argument: COc1cc(Nc2c(C#N)cnc3cc(OCCCN4CCN(C)CC4)c(OC)cc23)c(Cl)cc1Cl
Reply: 397

Task item: Return reported area under the viability dose-response curve; argument: COc1ccc(-c2ccc3c(N4CCOC[C@@H]4C)nc(N4CCOC[C@@H]4C)nc3n2)cc1CO
Reply: 278

Task item: Return reported area under the viability dose-response curve; argument: C[C@H]1Oc2cc(cnc2N)-c2c(nn(C)c2C#N)CN(C)C(=O)c2ccc(F)cc21
Reply: 448

----------
System: 3E
protocol-text: area under the viability dose-response curve (AUC) (AUC (arbitrary units, max 500 = no viability loss)); higher = less sensitive (higher viability)
recorded-conditions: exposure time: 120 h; concentration range: 0.1 nM - 10 µM, 6 doses
Item-by-item account of area under the viability dose-response curve
I only need the number, thanks.

Task item: Return reported area under the viability dose-response curve; argument: Cc1ccc(C(=O)Nc2ccc(Oc3cc4cnn(C)c4cc3-c3cn[nH]c3)c(F)c2)c(=O)n1-c1ccc(F)cc1 [Merestinib]
Reply: 452

Task item: Return reported area under the viability dose-response curve; argument: COc1ccc([C@@H](O)c2cc(-c3ncnc4cc(N5CCOCC5)ccc34)c(F)cc2Cl)nn1 [Nedisertib]
Reply: 435

Task item: Return reported area under the viability dose-response curve; argument: CN(Cc1cnc2nc(N)nc(N)c2n1)c1ccc(C(=O)N[C@@H](CCC(=O)O)C(=O)O)cc1 [Methotrexate]
Reply: 483

Task item: Return reported area under the viability dose-response curve; argument: N#Cc1c(Oc2ccc(F)c(NC(=O)Cc3cccc(C(F)(F)F)c3)c2)ccc2nc(NC(=O)C3CC3)sc12 [TAK632]
Reply: 472
